Please respond with reported EC50 for every item in the list.
Target: CFTR ΔF508 mutant (Homo sapiens, UniProt P13569, DEL508-508)
Sequence (P13569 with tags, fused parts or gaps DEL508-508): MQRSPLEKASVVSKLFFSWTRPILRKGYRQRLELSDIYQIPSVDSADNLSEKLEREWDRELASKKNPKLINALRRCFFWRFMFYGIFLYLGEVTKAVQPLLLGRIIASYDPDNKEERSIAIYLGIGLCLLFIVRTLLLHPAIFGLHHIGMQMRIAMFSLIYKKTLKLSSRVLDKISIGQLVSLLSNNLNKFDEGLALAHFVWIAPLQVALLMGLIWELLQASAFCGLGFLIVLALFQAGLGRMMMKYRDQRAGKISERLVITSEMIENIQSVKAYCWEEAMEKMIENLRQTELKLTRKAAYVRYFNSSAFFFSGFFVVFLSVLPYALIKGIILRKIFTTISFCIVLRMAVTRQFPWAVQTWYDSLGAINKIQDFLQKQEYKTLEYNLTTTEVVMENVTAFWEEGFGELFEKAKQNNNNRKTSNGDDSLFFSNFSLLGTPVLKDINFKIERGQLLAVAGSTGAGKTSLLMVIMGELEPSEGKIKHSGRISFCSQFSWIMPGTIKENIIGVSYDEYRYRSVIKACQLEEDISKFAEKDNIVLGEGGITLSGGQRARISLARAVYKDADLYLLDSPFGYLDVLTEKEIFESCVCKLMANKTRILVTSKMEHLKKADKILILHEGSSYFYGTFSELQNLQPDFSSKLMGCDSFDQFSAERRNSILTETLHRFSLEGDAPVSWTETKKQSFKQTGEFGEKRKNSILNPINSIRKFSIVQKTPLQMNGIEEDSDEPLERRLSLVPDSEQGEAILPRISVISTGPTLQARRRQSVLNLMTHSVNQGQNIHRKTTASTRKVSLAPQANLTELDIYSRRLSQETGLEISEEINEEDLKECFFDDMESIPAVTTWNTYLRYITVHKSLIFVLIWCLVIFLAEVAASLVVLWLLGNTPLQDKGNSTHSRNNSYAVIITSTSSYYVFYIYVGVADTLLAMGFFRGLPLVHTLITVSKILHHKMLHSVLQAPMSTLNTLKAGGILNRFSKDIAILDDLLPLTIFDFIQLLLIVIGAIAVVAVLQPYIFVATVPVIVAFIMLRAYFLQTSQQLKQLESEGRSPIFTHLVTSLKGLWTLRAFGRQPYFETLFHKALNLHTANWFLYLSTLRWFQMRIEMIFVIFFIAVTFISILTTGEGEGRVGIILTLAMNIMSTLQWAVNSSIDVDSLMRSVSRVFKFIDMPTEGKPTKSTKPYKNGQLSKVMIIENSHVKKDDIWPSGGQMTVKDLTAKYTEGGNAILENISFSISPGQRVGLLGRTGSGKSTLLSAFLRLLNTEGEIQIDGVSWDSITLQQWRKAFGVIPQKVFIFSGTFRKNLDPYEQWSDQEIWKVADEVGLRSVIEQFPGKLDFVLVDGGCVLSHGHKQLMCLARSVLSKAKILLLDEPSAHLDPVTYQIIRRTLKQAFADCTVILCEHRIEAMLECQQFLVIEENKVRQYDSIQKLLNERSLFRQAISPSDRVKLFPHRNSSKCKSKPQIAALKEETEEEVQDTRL
Experiment: YFP-halide influx assay for the CFTR-ΔF508 mutation (CFBE41o- cells)
Settings: forskolin 10.67 μM, from (1−F/F0) vs concentration plot
Numbers only; they are read as µM.

// lookup EC50 for Nc1cc(S(=O)(=O)c2ccc(OC(F)(F)F)cc2)cnc1C(=O)NCC1COCCO1 (stereo not shown) [Compound 8] 0.0721

// lookup EC50 for Nc1cc(S(=O)(=O)c2ccc(OC(F)(F)F)cc2)cnc1C(=O)N1CC(O)C1 [Compound 32] 0.0145

// lookup EC50 for C[C@H](O)CNC(=O)c1nc(Oc2cccc(F)c2)c(S(=O)(=O)c2ccc(OC(F)(F)F)cc2)cc1N [Compound 284] 0.0063

// lookup EC50 for CCOCCOCC(O)CNC(=O)c1ncc(S(=O)(=O)c2ccc(OC(F)(F)F)cc2)cc1N (stereo not shown) [Compound 38] 0.0616

// lookup EC50 for C[C@H](O)CNC(=O)c1ncc(S(=O)(=O)c2ccccc2OC(F)(F)F)cc1N [Compound 82] 0.0027

// lookup EC50 for Nc1cc(S(=O)(=O)c2ccc(OC(F)(F)F)cc2)cnc1C(=O)NC[C@H](O)COCC1CC1 [Compound 242] 0.0254

// lookup EC50 for Nc1cc(S(=O)(=O)c2ccc(F)cc2)cnc1C(=O)NCCC(O)C(F)(F)F (stereo not shown) [Compound 72] 0.0218

// lookup EC50 for Nc1cc(S(=O)(=O)c2ccc(OC(F)(F)F)cc2)cnc1C(=O)NC1COC2(CCCCC2)C1 (stereo not shown) [Compound 149] 0.179

// lookup EC50 for Nc1cc(S(=O)(=O)c2ccc(F)cc2)cnc1C(=O)NCC(O)C(F)(F)F (stereo not shown) [Compound 27] 0.0101

// lookup EC50 for Nc1cc(S(=O)(=O)c2ccc(OC(F)(F)F)cc2)cnc1C(=O)NCCCCO [Compound 45] 0.0837

// lookup EC50 for Nc1cc(S(=O)(=O)c2ccc(OC(F)(F)F)cc2)cnc1C(=O)N[C@@H]1CCCOC1 [Compound 140] 0.051

// lookup EC50 for COCC(O)CNC(=O)c1ncc(S(=O)(=O)c2ccc(C(F)(F)F)cc2)cc1N (stereo not shown) [Compound 239] 0.0295

// lookup EC50 for CC(C)(C)C(O)CNC(=O)c1ncc(S(=O)(=O)c2ccc(OC(F)(F)F)cc2)cc1N (stereo not shown) [Compound 16] 0.0157

// lookup EC50 for CN(C1CC1)S(=O)(=O)c1cnc(C(=O)NCC(O)C(F)(F)F)c(N)c1 (stereo not shown) [Compound 94] 0.0222

// lookup EC50 for Nc1cc(S(=O)(=O)c2ccc(OC(F)(F)F)cc2)cnc1C(=O)N1CCC1 [Compound 65] 0.0414

---

Please respond with reported pEC50 for every item in the list.
Biological target: CFTR G551D mutant (Homo sapiens, UniProt P13569, G551D)
Sequence (P13569 whole entry G551D): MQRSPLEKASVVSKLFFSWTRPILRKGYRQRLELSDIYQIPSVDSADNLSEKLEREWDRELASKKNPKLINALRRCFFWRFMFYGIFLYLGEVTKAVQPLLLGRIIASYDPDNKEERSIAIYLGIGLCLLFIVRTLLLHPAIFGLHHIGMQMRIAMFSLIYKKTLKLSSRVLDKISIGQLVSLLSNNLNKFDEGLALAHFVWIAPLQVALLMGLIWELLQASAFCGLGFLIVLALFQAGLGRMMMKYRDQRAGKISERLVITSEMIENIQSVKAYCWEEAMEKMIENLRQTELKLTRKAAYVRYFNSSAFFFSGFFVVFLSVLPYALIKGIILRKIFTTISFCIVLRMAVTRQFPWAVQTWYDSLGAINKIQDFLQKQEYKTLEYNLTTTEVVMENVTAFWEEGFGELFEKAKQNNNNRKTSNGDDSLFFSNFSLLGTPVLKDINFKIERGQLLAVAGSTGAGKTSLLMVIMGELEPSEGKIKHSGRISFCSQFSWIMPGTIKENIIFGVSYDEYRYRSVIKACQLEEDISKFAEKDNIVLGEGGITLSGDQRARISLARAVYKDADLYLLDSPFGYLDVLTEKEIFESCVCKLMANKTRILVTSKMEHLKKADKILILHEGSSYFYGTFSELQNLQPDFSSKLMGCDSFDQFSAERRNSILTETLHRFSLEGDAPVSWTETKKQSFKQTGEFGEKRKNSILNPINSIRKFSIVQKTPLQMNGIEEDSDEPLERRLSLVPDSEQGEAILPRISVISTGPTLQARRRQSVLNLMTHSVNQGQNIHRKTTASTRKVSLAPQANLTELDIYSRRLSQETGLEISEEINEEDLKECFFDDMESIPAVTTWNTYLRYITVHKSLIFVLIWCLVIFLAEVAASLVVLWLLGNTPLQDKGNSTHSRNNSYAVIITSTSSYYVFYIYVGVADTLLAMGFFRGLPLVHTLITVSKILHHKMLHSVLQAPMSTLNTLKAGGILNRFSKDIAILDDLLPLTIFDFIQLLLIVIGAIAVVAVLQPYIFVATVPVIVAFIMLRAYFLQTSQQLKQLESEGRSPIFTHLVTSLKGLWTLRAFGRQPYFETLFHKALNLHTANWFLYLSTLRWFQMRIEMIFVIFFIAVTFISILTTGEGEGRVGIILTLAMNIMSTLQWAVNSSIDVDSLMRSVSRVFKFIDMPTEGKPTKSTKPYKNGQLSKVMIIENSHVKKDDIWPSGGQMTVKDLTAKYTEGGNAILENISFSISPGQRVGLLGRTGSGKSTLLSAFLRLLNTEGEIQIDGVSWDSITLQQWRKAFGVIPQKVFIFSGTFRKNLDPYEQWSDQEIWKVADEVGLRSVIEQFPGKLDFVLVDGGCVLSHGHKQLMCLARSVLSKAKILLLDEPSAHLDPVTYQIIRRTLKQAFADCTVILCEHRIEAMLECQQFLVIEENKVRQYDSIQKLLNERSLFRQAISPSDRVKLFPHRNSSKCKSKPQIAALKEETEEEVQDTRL
Assay: YFP-halide influx assay for the CFTR-G551D mutation (HEK293 cells)
Details: forskolin 10.67 μM
# log scale: pEC50 equals minus log10 of the concentration in mol/L

// lookup pEC50 for Nc1cc(S(=O)(=O)N2CCCC(F)(F)C2)cnc1C(=O)NCC(O)C(F)(F)F (stereo not shown) 5.95

// lookup pEC50 for Nc1cc(S(=O)(=O)c2ccc(OC(F)(F)F)cc2)cnc1C(=O)Nc1cc[nH]n1 6.62

// lookup pEC50 for Nc1cc(S(=O)(=O)c2ccc(OC(F)(F)F)cc2)cnc1C(=O)NC1CCOCC1 5.51
